Biological target: EGFR Del19/C797S (Homo sapiens, UniProt P00533, C797S/DEL746-750)
Sequence (P00533 with tags, fused parts or gaps DEL746-750/C797S): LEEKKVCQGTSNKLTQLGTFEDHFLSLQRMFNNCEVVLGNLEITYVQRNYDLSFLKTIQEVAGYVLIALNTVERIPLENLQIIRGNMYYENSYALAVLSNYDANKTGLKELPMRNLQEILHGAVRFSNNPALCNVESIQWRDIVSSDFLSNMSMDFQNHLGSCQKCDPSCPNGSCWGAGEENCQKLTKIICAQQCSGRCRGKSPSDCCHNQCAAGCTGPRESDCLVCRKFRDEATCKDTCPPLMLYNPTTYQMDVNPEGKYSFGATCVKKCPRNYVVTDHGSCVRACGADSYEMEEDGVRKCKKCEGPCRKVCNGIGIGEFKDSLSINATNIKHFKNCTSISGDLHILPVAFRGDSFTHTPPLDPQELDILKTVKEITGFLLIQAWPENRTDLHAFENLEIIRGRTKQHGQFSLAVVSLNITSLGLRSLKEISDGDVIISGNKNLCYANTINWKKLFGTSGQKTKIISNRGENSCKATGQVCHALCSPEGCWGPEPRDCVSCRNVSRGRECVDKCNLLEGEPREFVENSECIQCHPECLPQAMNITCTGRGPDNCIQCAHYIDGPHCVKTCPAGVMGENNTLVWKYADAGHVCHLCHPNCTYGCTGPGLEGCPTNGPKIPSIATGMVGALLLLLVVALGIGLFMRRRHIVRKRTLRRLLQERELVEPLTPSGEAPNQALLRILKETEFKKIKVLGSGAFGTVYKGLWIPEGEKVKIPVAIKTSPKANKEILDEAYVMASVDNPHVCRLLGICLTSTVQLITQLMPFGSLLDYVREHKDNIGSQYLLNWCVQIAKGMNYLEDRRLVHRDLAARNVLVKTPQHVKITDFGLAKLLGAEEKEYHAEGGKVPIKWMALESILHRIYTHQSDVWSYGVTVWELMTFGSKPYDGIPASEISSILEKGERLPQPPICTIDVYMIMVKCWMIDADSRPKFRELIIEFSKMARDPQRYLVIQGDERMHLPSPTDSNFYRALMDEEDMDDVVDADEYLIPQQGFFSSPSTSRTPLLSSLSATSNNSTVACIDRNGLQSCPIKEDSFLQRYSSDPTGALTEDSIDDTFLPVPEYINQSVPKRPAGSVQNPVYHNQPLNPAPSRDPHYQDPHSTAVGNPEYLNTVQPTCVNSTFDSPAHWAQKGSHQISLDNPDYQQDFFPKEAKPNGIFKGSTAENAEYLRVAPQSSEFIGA
Assay: Biochemical EGFR kinase inhibition assay (Lance Ultra TR-FRET), double mutant del19/C797S
Conditions: IC50 Del19/C797S (nM), 100 μM ATP
Values of IC50 strictly less than 7 nM map to 1, and values of at least 7 nM map to 0.

Q: Check if IC50 falls below 7 nM for CC1(C#Cc2cnc(Nc3ccnc(-c4cnn(S(=O)(=O)C5CC5)c4)n3)cc2N[C@H]2CC[C@@H](O)CC2)COC1 [Example 350] .
Ans: 0

Q: Check if IC50 falls below 7 nM for C[C@]1(O)CC[C@@H](Nc2cc(Nc3ccnc(-c4cnn(S(=O)(=O)C5CC5)c4)n3)ncc2C#Cc2cnn(CC(F)(F)F)c2)CC1 [Example 344] .
Ans: 0

Q: Check if IC50 falls below 7 nM for C[C@H](Nc1cc(Nc2ccnc(-c3cnn(S(=O)(=O)C4CC4)c3)n2)ncc1C#Cc1cnn(C)c1)C(C)(C)O [Example 5] .
Ans: 0

Q: Check if IC50 falls below 7 nM for CC1(CO)CCN(c2cc(Nc3ccnc(-c4cnn(S(=O)(=O)C5CC5)c4)n3)ncc2C#CC2(O)COC2)CC1 [Example 354] .
Ans: 1

Q: Check if IC50 falls below 7 nM for CN1CCC(n2cc(C#Cc3cnc(Nc4ccnc(-c5cnn(S(=O)(=O)C6CC6)c5)n4)cc3N3CCC(C)(CO)CC3)cn2)CC1 [Example 147] .
Ans: 1

----------
Target: EGFR Del19/C797S (Homo sapiens, UniProt P00533, C797S/DEL746-750)
Test: Biochemical EGFR kinase inhibition assay (Lance Ultra TR-FRET), double mutant del19/C797S
Conditions: IC50 Del19/C797S (nM), 100 μM ATP
For each entry below, report its IC50 value.
Kindly provide the numeric value in nM only, without the unit symbol.

Q: Fill in reported IC50 for this entry: CC(C)(O)C1CCN(c2cc(Nc3ccnc(-c4cnn(S(=O)(=O)C5CC5)c4)n3)ncc2C#Cc2cnn(C(F)(F)F)c2)CC1 [Example 329]
Ans: 1080

Q: Fill in reported IC50 for this entry: O=S(=O)(C1CC1)n1cc(-c2nccc(Nc3cc(N4CCCC(O)C4)c(C#Cc4ccc(N5CCOCC5)nc4)cn3)n2)cn1 (stereo not shown) [Example 227]
Ans: 94.7

Q: Fill in reported IC50 for this entry: CC(=O)N1CCC(n2cc(C#Cc3cnc(Nc4ccnc(-c5cnn(S(=O)(=O)C6CC6)c5)n4)cc3N3CCC(F)(CO)CC3)cn2)CC1 [Example 111]
Ans: 2

Q: Fill in reported IC50 for this entry: O=S(=O)(C1CC1)n1cc(-c2nccc(Nc3cc(N[C@H]4CC[C@@H](O)CC4)c(C#CC4CCOCC4)cn3)n2)cn1 [Example 178]
Ans: 2.3

Q: Fill in reported IC50 for this entry: O=S(=O)(C1CC1)n1cc(-c2nccc(Nc3cc(N[C@H]4CCC[C@H](O)C4)c(C#Cc4cnn(CC(F)(F)F)c4)cn3)n2)cn1 [Example 341]
Ans: 34.2

Q: Fill in reported IC50 for this entry: CC1(CO)CCN(c2cc(Nc3ccnc(-c4cnn(S(=O)(=O)C5CC5)c4)n3)ncc2C#Cc2ccc(CN3CCOCC3)s2)CC1 [Example 191]
Ans: 4.3

Q: Fill in reported IC50 for this entry: CC1(CO)CCN(c2cc(Nc3ccnc(-c4cnn(S(C)(=O)=O)c4)n3)ncc2C#Cc2cnn(C(F)(F)F)c2)CC1 [Example 268]
Ans: 59.6

Q: Fill in reported IC50 for this entry: CS(=O)(=O)N1CCC(C#Cc2cnc(Nc3ccnc(-c4cnn(S(=O)(=O)C5CC5)c4)n3)cc2N[C@H]2CC[C@@H](CO)CC2)CC1 [Example 387]
Ans: 4.4

Q: Fill in reported IC50 for this entry: CN(C)C[C@H]1CC[C@H](COc2cc(Nc3ccnc(-c4cnn(S(=O)(=O)C5CC5)c4)n3)ncc2C#Cc2cnn(C)c2)CC1 [Example 58]
Ans: 2.8

Q: Fill in reported IC50 for this entry: Cn1cc(C#Cc2cnc(Nc3ccnc(-c4cnn(S(=O)(=O)C5CC5)c4)n3)cc2N2CCC(O)C(F)(F)C2)cn1 (stereo not shown) [Example 68]
Ans: 31

Q: Fill in reported IC50 for this entry: O=S(=O)(C1CC1)N1CCC(C#Cc2cnc(Nc3ccnc(-c4cnn(S(=O)(=O)C5CC5)c4)n3)cc2NC2CCC(O)CC2)C1 (stereo not shown) [Example 394]
Ans: 12.3

Q: Fill in reported IC50 for this entry: CC(=O)N1CCC(n2cc(C#Cc3cnc(Nc4ccnc(-c5cnn(S(=O)(=O)C6CC6)c5)n4)cc3N3CCC(NCCN(C)C)CC3)cn2)CC1 [Example 139]
Ans: 1.4

Q: Fill in reported IC50 for this entry: CN(C)CC1(F)CCN(c2cc(Nc3ccnc(-c4cnn(S(=O)(=O)C5CC5)c4)n3)ncc2C#Cc2cnn(C3CC3)c2)CC1 [Example 300]
Ans: 10.3

----------
Biological target: EGFR L858R/C797S (Homo sapiens, UniProt P00533, C797S/L858R)
Sequence (P00533 25-1210 C797S/L858R): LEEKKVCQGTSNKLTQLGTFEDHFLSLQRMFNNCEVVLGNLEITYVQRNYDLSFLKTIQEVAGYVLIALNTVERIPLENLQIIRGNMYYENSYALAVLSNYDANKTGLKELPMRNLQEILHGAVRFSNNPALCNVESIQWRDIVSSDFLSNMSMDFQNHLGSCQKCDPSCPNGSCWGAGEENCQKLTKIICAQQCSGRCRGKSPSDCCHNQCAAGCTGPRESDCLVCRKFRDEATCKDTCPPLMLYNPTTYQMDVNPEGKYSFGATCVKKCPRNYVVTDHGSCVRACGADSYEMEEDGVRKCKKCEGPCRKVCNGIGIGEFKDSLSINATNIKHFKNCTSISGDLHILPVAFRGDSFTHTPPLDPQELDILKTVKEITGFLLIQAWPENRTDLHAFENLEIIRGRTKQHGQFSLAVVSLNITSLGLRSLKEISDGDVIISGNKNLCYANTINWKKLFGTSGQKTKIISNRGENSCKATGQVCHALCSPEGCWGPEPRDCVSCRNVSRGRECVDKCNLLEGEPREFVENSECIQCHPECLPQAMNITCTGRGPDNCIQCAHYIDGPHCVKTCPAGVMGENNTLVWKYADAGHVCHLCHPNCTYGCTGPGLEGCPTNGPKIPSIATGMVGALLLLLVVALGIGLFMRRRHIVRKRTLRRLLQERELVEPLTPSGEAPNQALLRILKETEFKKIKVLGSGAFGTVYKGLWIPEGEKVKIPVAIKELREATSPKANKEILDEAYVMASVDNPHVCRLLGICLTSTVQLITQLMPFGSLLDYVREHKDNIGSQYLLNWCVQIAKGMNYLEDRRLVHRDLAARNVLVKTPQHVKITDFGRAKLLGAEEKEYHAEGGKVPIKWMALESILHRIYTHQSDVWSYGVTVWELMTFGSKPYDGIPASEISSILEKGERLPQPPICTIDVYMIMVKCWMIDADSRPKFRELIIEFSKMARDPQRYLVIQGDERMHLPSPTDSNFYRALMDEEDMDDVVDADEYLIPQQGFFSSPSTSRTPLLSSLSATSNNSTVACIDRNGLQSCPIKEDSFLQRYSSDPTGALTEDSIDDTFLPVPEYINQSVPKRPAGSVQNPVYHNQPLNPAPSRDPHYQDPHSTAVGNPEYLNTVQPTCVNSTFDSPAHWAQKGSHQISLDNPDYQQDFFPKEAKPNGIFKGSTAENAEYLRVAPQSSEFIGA
Assay: Biochemical EGFR kinase inhibition assay (Lance Ultra TR-FRET), double mutant L858R/C797S
Conditions: Km ATP; read-out: IC50 L858R/C797S (nM), Km ATP
For each entry below, report its log10 of IC50 value.
Use the decimal logarithm of IC50 (nM).

Q: Please indicate recorded log10 of IC50 of CC1(O)CC2(CCN(c3cc(Nc4ccnc(-c5cnn(S(=O)(=O)C6CC6)c5)n4)ncc3C#Cc3cnn(CC(F)(F)F)c3)CC2)C1 [Example 347] measured with EGFR L858R/C797S (Homo sapiens, UniProt P00533, C797S/L858R).
Ans: 0.77

Q: Please indicate recorded log10 of IC50 of O=S(=O)(C1CC1)N1CCC(C#Cc2cnc(Nc3ccnc(-c4cnn(S(=O)(=O)C5CC5)c4)n3)cc2NC2CCC(CO)CC2)C1 (stereo not shown) [Example 393] measured with EGFR L858R/C797S (Homo sapiens, UniProt P00533, C797S/L858R).
Ans: 0.53

Q: Please indicate recorded log10 of IC50 of CC1(CO)CCN(c2cc(Nc3ccnc(N4CCN(S(=O)(=O)C5CC5)CC4)n3)ncc2C#Cc2cnn(C(F)(F)F)c2)CC1 [Example 449] measured with EGFR L858R/C797S (Homo sapiens, UniProt P00533, C797S/L858R).
Ans: 1.84

Q: Please indicate recorded log10 of IC50 of CN(C)CCC1CCN(c2cc(Nc3ccnc(-c4cnn(S(=O)(=O)C5CC5)c4)n3)ncc2C#CC2(C)CC2)CC1 [Example 407] measured with EGFR L858R/C797S (Homo sapiens, UniProt P00533, C797S/L858R).
Ans: -0.10

Q: Please indicate recorded log10 of IC50 of CN(C)CCC1CCN(c2cc(Nc3ccnc(-c4cnn(S(=O)(=O)C5CC5)c4)n3)ncc2C#Cc2cnn(CC(F)(F)F)c2)CC1 [Example 349] measured with EGFR L858R/C797S (Homo sapiens, UniProt P00533, C797S/L858R).
Ans: 0.15

Q: Please indicate recorded log10 of IC50 of CC1(C#Cc2cnc(Nc3ccnc(-c4cnn(S(=O)(=O)C5CC5)c4)n3)cc2N[C@H]2CC[C@@H](CO)CC2)CC1 [Example 402] measured with EGFR L858R/C797S (Homo sapiens, UniProt P00533, C797S/L858R).
Ans: 0.59

Q: Please indicate recorded log10 of IC50 of CN1CCN(Cc2ccc(C#Cc3cnc(Nc4ccnc(-c5cnn(S(=O)(=O)C6CC6)c5)n4)cc3N3CCC4(CCO4)CC3)cc2)CC1 [Example 370] measured with EGFR L858R/C797S (Homo sapiens, UniProt P00533, C797S/L858R).
Ans: 0.15

Q: Please indicate recorded log10 of IC50 of CN(C)CCC1CCCN(c2cc(Nc3ccnc(-c4cnn(S(=O)(=O)C5CC5)c4)n3)ncc2C#Cc2cnn(CCF)c2)C1 (stereo not shown) [Example 386] measured with EGFR L858R/C797S (Homo sapiens, UniProt P00533, C797S/L858R).
Ans: -0.05

Q: Please indicate recorded log10 of IC50 of O=S(=O)(C1CC1)n1cc(-c2nccc(Nc3cc(N[C@H]4CC[C@@H](O)CC4)c(C#Cc4cnn(CC(F)(F)F)c4)cn3)n2)cn1 [Example 339] measured with EGFR L858R/C797S (Homo sapiens, UniProt P00533, C797S/L858R).
Ans: 0.69

Q: Please indicate recorded log10 of IC50 of CC1(CO)CCN(c2cc(Nc3ccnc(-c4cnn(S(=O)(=O)C5CC5)c4)n3)ncc2C#CC2CCN(S(C)(=O)=O)CC2)CC1 [Example 389] measured with EGFR L858R/C797S (Homo sapiens, UniProt P00533, C797S/L858R).
Ans: 0.20

Q: Please indicate recorded log10 of IC50 of O=S(=O)(C1CC1)n1cc(-c2nccc(Nc3cc(NC4CCC(CO)CC4)c(C#CC4(F)CCOC4)cn3)n2)cn1 (stereo not shown) [Example 434] measured with EGFR L858R/C797S (Homo sapiens, UniProt P00533, C797S/L858R).
Ans: 0.38

Q: Please indicate recorded log10 of IC50 of CC1(CO)CCN(c2cc(Nc3ccnc(-c4cnn(S(=O)(=O)C5CC5)c4)n3)ncc2C#CC2CCS(=O)(=O)C2)CC1 (stereo not shown) [Example 437] measured with EGFR L858R/C797S (Homo sapiens, UniProt P00533, C797S/L858R).
Ans: -0.10

Q: Please indicate recorded log10 of IC50 of CC1OCCC1C#Cc1cnc(Nc2ccnc(-c3cnn(S(=O)(=O)C4CC4)c3)n2)cc1N1CCC(C)(O)CC1 (stereo not shown) [Example 432] measured with EGFR L858R/C797S (Homo sapiens, UniProt P00533, C797S/L858R).
Ans: 0.72
